Data origin, for the record: patent US20230110188A1

Below, each entry is listed alongside its reported extra amplitude (%).
Measurement target: T1, Human MuSK (R&D Systems, cat. 10189-MK, histidine tag) (human, UniProt O15146 24-495)
T1 construct: Bought protein; also called human monomeric MuSK-6xhis; not shown: histidine tag (6xhis)
T1 sequence: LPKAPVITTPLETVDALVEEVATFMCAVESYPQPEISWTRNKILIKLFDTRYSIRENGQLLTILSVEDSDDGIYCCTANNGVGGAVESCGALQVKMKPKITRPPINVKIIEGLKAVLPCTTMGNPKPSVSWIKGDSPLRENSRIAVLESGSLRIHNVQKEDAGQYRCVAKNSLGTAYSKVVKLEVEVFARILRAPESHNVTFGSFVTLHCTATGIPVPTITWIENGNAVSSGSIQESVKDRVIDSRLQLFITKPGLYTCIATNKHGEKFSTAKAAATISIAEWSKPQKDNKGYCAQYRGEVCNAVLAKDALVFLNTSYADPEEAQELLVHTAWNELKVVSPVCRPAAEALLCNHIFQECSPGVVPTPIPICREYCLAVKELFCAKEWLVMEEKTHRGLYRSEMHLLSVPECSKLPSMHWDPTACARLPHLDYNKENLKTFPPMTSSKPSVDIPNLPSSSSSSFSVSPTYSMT
Assay method text: SPR (Biacore), MuSK-coated chip presaturated with 500 nM 3D9b (competitor)
Answer format: numeric, % implied, no suffix.

Please give the measured extra amplitude (%) for this binder: 3D10a (antibody, human IgG1, kappa, L234A L235A, V domains shown) VH: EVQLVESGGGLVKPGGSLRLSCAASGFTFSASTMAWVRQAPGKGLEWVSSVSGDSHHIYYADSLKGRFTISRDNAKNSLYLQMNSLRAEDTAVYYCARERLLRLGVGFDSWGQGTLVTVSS VL: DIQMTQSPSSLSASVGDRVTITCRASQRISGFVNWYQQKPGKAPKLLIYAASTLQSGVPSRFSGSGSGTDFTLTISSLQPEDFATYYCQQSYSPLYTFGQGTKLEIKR
-0.5

Another binder: 4D3 (antibody, human IgG1, kappa, L234A L235A, V domains shown) VH: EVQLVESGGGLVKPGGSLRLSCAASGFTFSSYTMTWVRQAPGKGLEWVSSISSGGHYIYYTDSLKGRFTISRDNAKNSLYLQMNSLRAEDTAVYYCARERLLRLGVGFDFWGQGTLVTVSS VL: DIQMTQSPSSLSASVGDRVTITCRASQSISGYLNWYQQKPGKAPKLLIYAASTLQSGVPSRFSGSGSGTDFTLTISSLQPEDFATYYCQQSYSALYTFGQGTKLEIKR
-1.6

Follow-up entry: 3B5 (antibody, V domains shown, also called 3B5wt) VH: QVQLVQSGAVVAKPGASVQVSCKTSGYTFTGQYLHWVRQAPGQGLEWIGWINPSSGVTKFAEKFEGRATMTRDTSITTAYIDLRSLRSDDTATYYCATLSLGVYYVGMVAWGQGTLVTVSS VL: ELTQPPSVSVSPGQTATITCSGDGLAQQHVYWFQQRPGQAPLLIIYKDIERPSGIPERFSGSSSGTTAMLTISGVQAEDEADYYCQSGDRTATSVLFGGGTKMTVLG
539

Lab note: next binder to report on.
I'd like to know its extra amplitude (%). The binder in question is 3F6c (antibody, human IgG1, kappa, L234A L235A, V domains shown) VH: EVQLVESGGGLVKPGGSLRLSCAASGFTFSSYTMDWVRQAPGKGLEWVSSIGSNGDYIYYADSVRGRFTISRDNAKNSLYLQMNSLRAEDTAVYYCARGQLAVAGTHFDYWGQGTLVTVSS VL: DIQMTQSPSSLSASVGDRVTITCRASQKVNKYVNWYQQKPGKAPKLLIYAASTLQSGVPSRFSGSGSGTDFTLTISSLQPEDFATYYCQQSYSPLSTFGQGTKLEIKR
-2.1
